pKd: −log10 of the molar value.
Measured pKd (Met (Homo sapiens, UniProt P08581))

The following compounds have reported results that may help.
# Compound, pKd
rows = [
    ("CCOc1cn(-c2ccc(C)cc2F)nc1C(=O)Nc1ccc(Oc2ccnc3cc(OC)c(OC)cc23)cn1 [Compound 100]", "6.00 to 7.00"),
    ("COc1cc2nccc(Oc3ccc(NC(=O)c4nn(-c5cnc(N)cn5)cc4OCC(F)(F)F)nc3)c2cc1OC [Compound 248]", "> 7.00"),
    ("CCOc1cn(-c2ccc(F)cc2C)nc1C(=O)Nc1ccc(Oc2ccnc3cc(OC)c(OC)cc23)c(Cl)c1 [Compound 82]", "> 7.00"),
    ("CCOc1cnn(-c2ccoc2)c1C(=O)Nc1ccc(Oc2ccnc3cc(OC)c(OC)cc23)cn1 [Compound 25]", "≤ 6.00"),
    ("COc1cc2nccc(Oc3ccc(NC(=O)c4nn(-c5ccc(F)cc5Cl)cc4OCC4CC4)nc3)c2cc1OC [Compound 263]", "> 7.00"),
    ("CCOc1cn(CCC(=O)O)nc1C(=O)Nc1ccc(Oc2ccnc3cc(OC)c(OC)cc23)cn1 [Compound 63]", "6.00 to 7.00"),
]

Here is the next item to consider.
Problem: Indicate its recorded pKd; the compound in question is CCOc1cnn(-c2ccc(Cl)c(CN(C)C)c2)c1C(=O)Nc1ccc(Oc2ccnc3cc(OC)c(OC)cc23)cn1 [Compound 130]
Solution: > 7.00

###

# reported Kd; entries follow
- Measured on: Axl (Homo sapiens, UniProt P30530)
- Construct: purchased Life Technologies
- Sequence (P30530 26-894): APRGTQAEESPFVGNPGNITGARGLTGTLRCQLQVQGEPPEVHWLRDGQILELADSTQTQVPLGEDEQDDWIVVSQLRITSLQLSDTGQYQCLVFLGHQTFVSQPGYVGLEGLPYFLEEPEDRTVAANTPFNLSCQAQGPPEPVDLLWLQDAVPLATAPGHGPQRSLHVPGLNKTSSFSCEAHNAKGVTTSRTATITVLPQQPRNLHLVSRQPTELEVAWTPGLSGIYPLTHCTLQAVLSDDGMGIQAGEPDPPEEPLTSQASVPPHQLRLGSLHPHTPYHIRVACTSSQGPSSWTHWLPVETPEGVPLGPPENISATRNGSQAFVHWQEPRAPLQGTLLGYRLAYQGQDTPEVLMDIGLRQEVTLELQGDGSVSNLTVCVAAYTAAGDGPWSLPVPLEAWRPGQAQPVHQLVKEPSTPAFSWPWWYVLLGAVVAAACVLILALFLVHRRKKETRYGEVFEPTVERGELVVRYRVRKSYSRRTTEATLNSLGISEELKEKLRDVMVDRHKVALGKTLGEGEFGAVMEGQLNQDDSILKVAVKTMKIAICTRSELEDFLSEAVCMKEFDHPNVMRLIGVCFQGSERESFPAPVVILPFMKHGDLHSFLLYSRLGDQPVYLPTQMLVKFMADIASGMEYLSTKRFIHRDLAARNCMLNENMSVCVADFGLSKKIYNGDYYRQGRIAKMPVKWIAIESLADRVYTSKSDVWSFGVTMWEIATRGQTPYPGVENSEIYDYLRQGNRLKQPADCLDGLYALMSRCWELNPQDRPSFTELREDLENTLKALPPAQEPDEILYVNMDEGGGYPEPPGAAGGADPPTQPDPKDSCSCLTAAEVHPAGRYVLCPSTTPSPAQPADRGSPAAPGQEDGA
- Test protocol: LanthaScreen Eu kinase binding assay, Axl
- Protocol conditions: Tracer 236

# Compound, Meas value
records = [
    ("CCOc1cn(-c2cscn2)nc1C(=O)Nc1ccc(Oc2ccnc3cc(OC)c(OC)cc23)cn1", "< 100 nM"),
]

Problem: Indicate its recorded Kd; the compound in question is CCOc1cn(-c2cnc(C(F)(F)F)cn2)nc1C(=O)Nc1ccc(Oc2ccnc3cc(OC)c(OC)cc23)cn1
Solution: ≥ 1000 nM

Problem: Indicate its recorded Kd; the compound in question is CCOc1cn(C2CCCN(C(N)=O)C2)nc1C(=O)Nc1ccc(Oc2ccnc3cc(OC)c(OC)cc23)cc1F (stereo not drawn)
Solution: < 100 nM

Problem: Indicate its recorded Kd; the compound in question is CCOc1cn(-c2cnccc2C(C)=O)nc1C(=O)Nc1ccc(Oc2ccnc3cc(OC)c(OC)cc23)cn1
Solution: < 100 nM

###

pKd: −log10 of the molar value.
Measured pKd (Met (Homo sapiens, UniProt P08581))

The following compounds have reported results that may help.
# Compound, pKd
data = [
    ("CCOc1cn(-c2cnccc2C(C)(C)O)nc1C(=O)Nc1ccc(Oc2ccnc3cc(OC)c(OC)cc23)c(F)c1 [Compound 195]", "> 7.00"),
    ("CCOc1cn(-c2cnc(N)s2)nc1C(=O)Nc1ccc(Oc2ccnc3cc(OC)c(OC)cc23)cn1 [Compound 139]", "> 7.00"),
    ("CCOc1cn(-c2nccnc2C(C)(O)CO)nc1C(=O)Nc1ccc(Oc2ccnc3cc(OC)c(OC)cc23)cc1F (stereo not drawn) [Compound 229]", "> 7.00"),
    ("CCOc1cn(-c2cncn2C)nc1C(=O)Nc1ccc(Oc2ccnc3cc(OC)c(OC)cc23)cn1 [Compound 11]", "6.00 to 7.00"),
    ("COc1cc2nccc(Oc3ccc(NC(=O)c4nn(-c5cnc(Cl)cn5)cc4OCC(F)(F)F)nc3)c2cc1OC [Compound 236]", "> 7.00"),
    ("CCOc1cnn(-c2ccc(C#N)nc2)c1C(=O)Nc1ccc(Oc2ccnc3cc(OC)c(OC)cc23)cn1 [Compound 53]", "≤ 6.00"),
]

Here is the next item to consider.
Problem: Indicate its recorded pKd; the compound in question is CCOc1cn(-c2cccnc2)nc1C(=O)Nc1ccc(Oc2ccnc3cc(OC(C)C)c(OC)cc23)cn1 [Compound 208]
Solution: > 7.00

###

- Measured on: Mer (Homo sapiens)
pKd: −log10 of the molar value.
# reported pKd; entries follow

The following molecules have reported results that may help.
# Molecule, Meas value
records = [
    ("CCOc1cn(-c2cnccc2C(C)(C)O)nc1C(=O)Nc1ccc(Oc2ccnc3cc(OC)c(OC)cc23)c(F)c1", "> 7.00"),
    ("CCOc1cn(-c2ccc(Cl)cc2Cl)nc1C(=O)Nc1ccc(Oc2ccnc3cc(OC)c(OC)cc23)cn1", "> 7.00"),
    ("CCOc1cn(-c2nccnc2Cl)nc1C(=O)Nc1ccc(Oc2ccnc3cc(OC)c(OC)cc23)cc1F", "> 7.00"),
    ("CCOc1cn(-c2cnc(N)nc2)nc1C(=O)Nc1ccc(Oc2ccnc3cc(OC)c(OC(F)(F)F)cc23)cc1F", "≤ 6.00"),
]

Problem: Indicate its recorded pKd; the molecule in question is CCOc1cn(-c2cnccc2C#N)nc1C(=O)Nc1ccc(Oc2ccnc3cc(OC)c(OC)cc23)cn1
Solution: > 7.00

Problem: Indicate its recorded pKd; the molecule in question is CCOc1cn(-c2ccc(NC(C)C)cc2Cl)nc1C(=O)Nc1ccc(Oc2ccnc3cc(OC)c(OC)cc23)cn1
Solution: > 7.00

Problem: Indicate its recorded pKd; the molecule in question is CCOc1cnn(-c2ccoc2)c1C(=O)Nc1ccc(Oc2ccnc3cc(OC)c(OC)cc23)cn1
Solution: ≤ 6.00

Problem: Indicate its recorded pKd; the molecule in question is CCOc1cnn(-c2ccco2)c1C(=O)Nc1ccc(Oc2ccnc3cc(OC)c(OC)cc23)cn1
Solution: 6.00 to 7.00

Problem: Indicate its recorded pKd; the molecule in question is CCOc1cn(-c2nccnc2C(C)(C)O)nc1C(=O)Nc1ccc(Oc2ccnc3cc(OC)c(OC)cc23)cn1
Solution: > 7.00

###

- Measured on: Mer (Homo sapiens)
- Sequence (Q12866 21-999): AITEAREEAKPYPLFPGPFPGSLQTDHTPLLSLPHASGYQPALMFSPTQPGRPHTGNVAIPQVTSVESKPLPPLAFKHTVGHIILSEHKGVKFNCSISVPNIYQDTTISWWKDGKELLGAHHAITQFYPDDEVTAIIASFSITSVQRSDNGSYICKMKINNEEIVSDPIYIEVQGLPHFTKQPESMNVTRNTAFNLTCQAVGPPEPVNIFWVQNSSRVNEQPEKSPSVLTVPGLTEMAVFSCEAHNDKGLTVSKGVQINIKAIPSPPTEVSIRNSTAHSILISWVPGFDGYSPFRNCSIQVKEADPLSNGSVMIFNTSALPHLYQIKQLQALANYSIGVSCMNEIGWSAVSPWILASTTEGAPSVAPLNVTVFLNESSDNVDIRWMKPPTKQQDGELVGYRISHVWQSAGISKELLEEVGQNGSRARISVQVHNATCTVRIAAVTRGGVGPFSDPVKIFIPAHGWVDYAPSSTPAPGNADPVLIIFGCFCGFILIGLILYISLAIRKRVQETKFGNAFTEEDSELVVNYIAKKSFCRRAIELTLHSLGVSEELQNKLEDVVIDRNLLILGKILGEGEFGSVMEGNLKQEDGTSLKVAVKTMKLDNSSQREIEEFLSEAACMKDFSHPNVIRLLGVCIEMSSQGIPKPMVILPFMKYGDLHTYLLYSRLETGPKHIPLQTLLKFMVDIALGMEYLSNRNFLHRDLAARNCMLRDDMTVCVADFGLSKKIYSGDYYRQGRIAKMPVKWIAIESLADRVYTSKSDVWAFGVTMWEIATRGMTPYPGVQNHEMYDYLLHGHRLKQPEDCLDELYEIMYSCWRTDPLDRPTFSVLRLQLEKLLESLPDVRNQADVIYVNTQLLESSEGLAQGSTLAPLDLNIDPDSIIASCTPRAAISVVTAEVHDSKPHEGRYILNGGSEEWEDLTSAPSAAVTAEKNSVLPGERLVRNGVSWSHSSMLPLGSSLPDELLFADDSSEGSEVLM
Property measured: Kd

# Structure smiles string, Kd
measured = [
    ("CCOc1cnn(-c2ccc(C(C)C)cc2)c1C(=O)Nc1ccc(Oc2ccnc3cc(OC)c(OC)cc23)cn1", "< 100 nM"),
    ("CCOc1nn(-c2cccnc2)cc1C(=O)Nc1ccc(Oc2ccnc3cc(OC)c(OC)cc23)cn1", "≥ 1000 nM"),
    ("CCOc1cn(-c2ccc(Cl)cc2CC)nc1C(=O)Nc1ccc(Oc2ccnc3cc(OC)c(OC)cc23)cn1", "< 100 nM"),
]

Here is the next item to consider.
Problem: Please report the measured Kd for CCOc1cn(-c2noc(C)n2)nc1C(=O)Nc1ccc(Oc2ccnc3cc(OC)c(OC)cc23)cn1 tested on Mer (Homo sapiens).
Solution: < 100 nM
